Assay: self-splicing fitness, log relative to wild type (ln ratio); higher = more splicing; Tetrahymena group I intron in knt gene, E. coli kanamycin selection, DiMSum; sequences stand for … in CUCUCU…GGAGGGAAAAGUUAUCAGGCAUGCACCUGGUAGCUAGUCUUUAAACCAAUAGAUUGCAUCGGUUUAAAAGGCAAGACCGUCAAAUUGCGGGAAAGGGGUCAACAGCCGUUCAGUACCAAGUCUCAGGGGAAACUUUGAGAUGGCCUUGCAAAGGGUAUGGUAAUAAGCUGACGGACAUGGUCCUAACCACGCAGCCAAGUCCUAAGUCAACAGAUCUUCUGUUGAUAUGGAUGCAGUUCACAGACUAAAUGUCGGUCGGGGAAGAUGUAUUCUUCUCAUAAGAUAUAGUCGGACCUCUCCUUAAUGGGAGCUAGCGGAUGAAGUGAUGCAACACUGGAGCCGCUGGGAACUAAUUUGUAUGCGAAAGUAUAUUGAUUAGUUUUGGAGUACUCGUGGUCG;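 note: selection with 25 µg/mL kanamycin versus none on LB agar overnight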
Settings: 37 °C
Parameter threshold = -1. Response is criterion met when self-splicing fitness (ln) meets or exceeds it, else criterion not met.

>>> classification("UAACAGCAAUAUUACGGUUC")
"criterion not met"
>>> classification("CCGCAGCAAUAUUACGUGCG")
"criterion not met"
>>> classification("GGAGAGCAAUAUUACGUAGC")
"criterion met"
>>> classification("UAAGAGCAAUAUUACGAGCC")
"criterion not met"
>>> classification("ACCUAGCAAUAUUACGAAGU")
"criterion not met"
>>> classification("ACACAGCAAUAUUACGCUUU")
"criterion not met"
>>> classification("GGCCAGCAAUAUUACGCACA")
"criterion met"
>>> classification("UGUCAGCAAUAUUACGUCAC")
"criterion not met"
>>> classification("AAUCAGCAAUAUUACGUUUC")
"criterion not met"
>>> classification("GAAGAGCAAUAUUACGGCCG")
"criterion met"
>>> classification("GUAGAGCAAUAUUACGGUCC")
"criterion met"
>>> classification("GUGCAGCAAUAUUACGUCGA")
"criterion met"
>>> classification("GGCUAGCAAUAUUACGCGGC")
"criterion not met"
>>> classification("UUACAGCAAUAUUACGGAUU")
"criterion not met"
